Source listed as PubChem BioAssay (NCI).

# Test system: BT-549 breast
# EXPERIMENTAL_DETAILS: NCI tumour cell line growth inhibition, 48 h
PARAMETER: TGI (µM)
Quick reminder: number only, in µM, skip the unit.

Look over these answered cases.
| MOLECULE | PARAMETER | UNIT_TEXT | RECORDED_VALUE |
| --- | --- | --- | --- |
| O=C1/C(=C/c2ccccc2)CCCC1CN1CCCCC1 (centres undefined) | TGI | µM | 8.91 |
| Cc1ccc2c3c1O[C@H]1c4[nH]c5ccccc5c4C[C@@]4(O)[C@@H](C2)N(C)CC[C@]314 | TGI | µM | 31.8 |
| C=C1C(=O)O[C@H]2[C@H]1CC/C(CNC(=O)Cc1c[nH]c3ccccc13)=C\CC[C@@]1(C)O[C@@H]21 | TGI | µM | 15.8 |
| FC(F)(F)Oc1cccc(-c2cnc3ccc(-c4ccncc4)nn23)c1 | TGI | µM | 8.88 |
| CCCCCCCC1C(C)c2c([nH]c3ccccc23)C2C(=O)N(c3ccc(OC)cc3)C(=O)C21 (centres undefined) | TGI | µM | 6.56 |

Enquiry: Request the reported TGI associated with "C=CC[n+]1c(/C=C/C=C2\N(C)c3ccccc3C2(C)C)sc2ccc(OC)cc21"
Return: 2.99

Enquiry: Request the reported TGI associated with "CC(C)(C)c1cc(CC2C(=O)c3ccccc3C2=O)cc(C(C)(C)C)c1O"
Return: 18.1

Enquiry: Request the reported TGI associated with C=C(C)C(=O)O[C@H]1C/C(CO)=C/CCC(=C)C(OC(C)=O)[C@H]2OC(=O)C(=C)[C@H]12 (some centres undefined)
Return: 12.1

Enquiry: Request the reported TGI associated with "NCCNc1c2c(c(NCCN)c3c(CO)c[nH]c13)C(=O)c1ccccc1C2=O"
Return: 32

Enquiry: Request the reported TGI associated with "COc1ccc(Oc2cccc(/C=C3/C(=O)Nc4ccccc43)c2)cc1"
Return: 29.5

* * *

# Tested on: OVCAR-5 ovarian
# EXPERIMENTAL_DETAILS: NCI tumour cell line growth inhibition, 48 h
PARAMETER: TGI (µM)
Quick reminder: number only, in µM, skip the unit.

Look over these answered cases.
| COMPOUND | TESTED_TARGET | PARAMETER | RECORDED_VALUE |
| --- | --- | --- | --- |
| CC(C)/C=C1\CCC(CN2CCCC2)C1=O (stereo unspecified) | OVCAR-5 ovarian | TGI | 35.2 |
| CC(C)(C)c1cc(C(=O)Nc2cc(Br)c(Br)cc2S(N)(=O)=O)cc(C(C)(C)C)c1O | OVCAR-5 ovarian | TGI | 24.9 |
| CC[C@]1(O)CC(OC2CC(N(C)C)C(O)C(C)O2)c2c(cc3c(c2O)C(=O)c2c(O)cccc2C3=O)[C@@H]1C(=O)OC (stereo partly specified) | OVCAR-5 ovarian | TGI | 13.9 |
| CCN(CC)CCOCC[C@H]1CC[C@H]2[C@@H]3[C@H](C)Cc4cc(OS(N)(=O)=O)ccc4[C@H]3CC[C@]12C | OVCAR-5 ovarian | TGI | 7.34 |

Enquiry: Request the reported TGI associated with "O=C[C@@H](CO)O[C@H](C=O)c1c[nH]c(=O)[nH]c1=O"
Return: 379
